Read-out: Interleukin-8 (IL8), CXCL8 (gene 3576)
Assay: BSK_MyoF_IL8: BioMAP Diversity Plus: MyoF Assay for Interleukin-8 (IL8) Biomarker Activity (AID 2284261)
Details: primary human lung fibroblasts
Activity calls are given as the source filed them. How the source made its calls: active means hit-call score of the fitted dose curve at least 0.9, where 1 is the maximum; inactive means score below 0.9.
Respond with a class label; see T for active, F for inactive

Example results:
> print(dat)
                                   compound  label.class
1                          CC(C)(C)C(=O)CCl            F
2  CC(C)(C)C(O)C(Oc1ccc(-c2ccccc2)cc1)n1cncn1 (configuration not stated)            F
3  CC(C)(c1cc(Cl)c(O)c(Cl)c1)c1cc(Cl)c(O)c(Cl)c1            T
4            O=C1C(Cl)=C(Cl)C(=O)C(Cl)=C1Cl            T

Input: Per the records of this test, what outcome belongs to `COCC(=O)N(c1c(C)cccc1C)N1CCOC1=O` ?
Output: F

Input: // next record `Nc1ccc(-c2ccc(N)c(N)c2)cc1N`
Output: F

Input: // next record `COC(C)(C)CCC[C@H](C)C/C=C/C(C)=C/C(=O)OC(C)C`
Output: F
